assay: Selectivity index, ratio of IC50 for cytotoxicity against human NHDF cells to IC50 for cytotoxicity against human A549 cells; type: toxicity, cell-based; details: NHDF cells and A549 cells, read-out: Ratio IC50
Please respond with true when measured selectivity ratio is strictly beneath 2, and with false in all other cases.

• COc1cc(/C=C/c2cc(-c3cc(Cl)ccc3O)n(-c3ccccc3)n2)cc(OC)c1OC = false
• Oc1ccccc1-c1cc(/C=C/c2ccccc2Cl)nn1-c1ccccc1 = false
• Oc1ccccc1-c1cc(/C=C/c2cccs2)nn1-c1ccccc1 = true
• Cc1ccc(/C=C/c2cc(-c3cc(Cl)ccc3O)n(-c3ccccc3)n2)s1 = true
• Oc1ccccc1-c1cc(/C=C/c2ccc(Cl)s2)nn1-c1ccccc1 = true
• COc1cc(/C=C/c2cc(-c3ccccc3O)n(-c3ccccc3)n2)cc(OC)c1OC = false
• Oc1ccc(Cl)cc1-c1cc(/C=C/c2cccc(Cl)c2)nn1-c1ccccc1 = true

====

assay: Selectivity index, ratio of IC50 for cytotoxicity against human NHDF cells to IC50 for cytotoxicity against human A549 cells; type: toxicity, cell-based; details: NHDF cells and A549 cells, read-out: Ratio IC50
measurement.kind: selectivity ratio

* COc1ccc(/C=C/c2cc(-c3cc(Cl)ccc3O)n(-c3ccccc3)n2)cc1 | 2.2
* Oc1ccc(Cl)cc1-c1cc(/C=C/c2ccc(Cl)cc2)nn1-c1ccccc1 | 2
* Oc1ccccc1-c1cc(/C=C/c2ccc(Cl)c(Cl)c2)nn1-c1ccccc1 | 2
* Oc1ccc(Cl)cc1-c1cc(/C=C/c2ccc(Cl)s2)nn1-c1ccccc1 | 1.4
* Oc1ccccc1-c1cc(/C=C/c2cccc(Cl)c2)nn1-c1ccccc1 | 1.6
* Oc1ccc(Cl)cc1-c1cc(/C=C/c2ccccc2Cl)nn1-c1ccccc1 | 1.5
* Oc1ccccc1-c1cc(/C=C/c2ccc(Cl)cc2)nn1-c1ccccc1 | 1.5
* O=[N+]([O-])c1cccc(/C=C/c2cc(-c3cc(Cl)ccc3O)n(-c3ccccc3)n2)c1 | 2.6
* COc1cccc(/C=C/c2cc(-c3cc(Cl)ccc3O)n(-c3ccccc3)n2)c1 | 2.3
* COc1ccc(/C=C/c2cc(-c3cc(Cl)ccc3O)n(-c3ccccc3)n2)cc1OC | 2.5
* Cc1ccc(/C=C/c2cc(-c3ccccc3O)n(-c3ccccc3)n2)s1 | 1.1

====

experiment: Cytotoxicity against human NHDF cells assessed inhibition of cell growth incubated for 72 hrs by MTT assay; type: toxicity, cell-based
measurement.kind: IC50 at 72 h (µM)

• COc1cc(/C=C/c2cc(-c3cc(Cl)ccc3O)n(-c3ccccc3)n2)cc(OC)c1OC = 39.6
• Oc1ccccc1-c1cc(/C=C/c2ccc(Cl)s2)nn1-c1ccccc1 = 18.5
• COc1ccc(/C=C/c2cc(-c3cc(Cl)ccc3O)n(-c3ccccc3)n2)cc1 = 47

====

assay: Cytotoxicity against human NHDF cells assessed inhibition of cell growth incubated for 72 hrs by MTT assay; assay type: toxicity, cell-based
criterion met if IC50 at 72 h is below 40 µM. criterion not met if not; exact matches included in criterion not met.

• Oc1ccc(Cl)cc1-c1cc(/C=C/c2cccc(Cl)c2)nn1-c1ccccc1 = criterion met
• Oc1ccccc1-c1cc(/C=C/c2cccs2)nn1-c1ccccc1 = criterion met
• Oc1ccc(Cl)cc1-c1cc(/C=C/c2ccc(Cl)cc2)nn1-c1ccccc1 = criterion not met
• COc1cccc(/C=C/c2cc(-c3ccccc3O)n(-c3ccccc3)n2)c1 = criterion not met
• Oc1ccc(Cl)cc1-c1cc(/C=C/c2ccc(Cl)s2)nn1-c1ccccc1 = criterion met
• Oc1ccccc1-c1cc(/C=C/c2ccc(Cl)c(Cl)c2)nn1-c1ccccc1 = criterion not met
• COc1cccc(/C=C/c2cc(-c3cc(Cl)ccc3O)n(-c3ccccc3)n2)c1 = criterion not met
• Oc1ccccc1-c1cc(/C=C/c2ccccc2Cl)nn1-c1ccccc1 = criterion not met
• COc1ccc(/C=C/c2cc(-c3ccccc3O)n(-c3ccccc3)n2)cc1 = criterion not met
• COc1ccc(/C=C/c2cc(-c3ccccc3O)n(-c3ccccc3)n2)cc1OC = criterion not met
• COc1cc(/C=C/c2cc(-c3ccccc3O)n(-c3ccccc3)n2)cc(OC)c1OC = criterion not met
• Oc1ccc(Cl)cc1-c1cc(/C=C/c2ccccc2Cl)nn1-c1ccccc1 = criterion met
• O=[N+]([O-])c1cccc(/C=C/c2cc(-c3ccccc3O)n(-c3ccccc3)n2)c1 = criterion not met
• Cc1ccc(/C=C/c2cc(-c3ccccc3O)n(-c3ccccc3)n2)s1 = criterion met
